system_under_test: FPRL-1 (Homo sapiens)
Construct: expressed in transfected cells
Sequence (P25090 1-351): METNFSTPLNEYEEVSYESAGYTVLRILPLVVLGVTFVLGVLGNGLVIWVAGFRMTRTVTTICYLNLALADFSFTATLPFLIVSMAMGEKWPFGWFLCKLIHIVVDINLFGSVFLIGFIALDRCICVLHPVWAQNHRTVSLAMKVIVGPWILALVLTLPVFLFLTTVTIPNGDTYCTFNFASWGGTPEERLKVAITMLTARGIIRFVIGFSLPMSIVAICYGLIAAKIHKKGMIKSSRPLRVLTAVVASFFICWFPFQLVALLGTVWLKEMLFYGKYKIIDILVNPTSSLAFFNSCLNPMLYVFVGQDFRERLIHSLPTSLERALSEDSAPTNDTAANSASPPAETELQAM
procedure_summary: compound-induced calcium activity on FLIPR Tetra in CHO-Gα16 cells stably expressing FPRL1
Format: cell-based
run_parameters: relative efficacy

>  <compound>
CCC[C@H](NC(=O)Nc1ccc(Br)cc1)C(=O)NCCO [Compound 20]

>  <FPRL-1 Ga16-CHO (Rel. eff.)>
(0.92)

$$$$
>  <compound>
CC(C)C[C@H](NC(=O)Nc1ccc(C(F)(F)F)cc1)C(=O)NC(C)(C)C(=O)O [Compound 69]

>  <FPRL-1 Ga16-CHO (Rel. eff.)>
(0.92)

$$$$
